target.or.system: Casein kinase I isoform gamma-3 (Homo sapiens)
setup.conditions: at 1 µM
observable: inhibition (%)
Report only the number, with the unit % understood.

Worked examples follow.
>>> print(df.to_string())
                            compound_string  units_of_measure  observed_value
0  Fc1ccc(-c2ncn(C3CCNCC3)c2-c2ccnc(Oc3ccc4c(c3)OCO4)n2)cc1                 %            17.9
1  COc1cc2ncn(-c3cc(OCCc4ccccc4)c(C(N)=O)s3)c2cc1OC                 %            6.34
2      CCc1cccc(CC)c1/C=C/c1cncc(C(=O)NC)c1                 %            4.99
3  FC(F)(F)c1cccc(Nc2nccc(-c3cnn4nc(-c5ccccc5)ccc34)n2)c1                 %            2.44
4  NC(=O)Cc1ccccc1Oc1nccc(-c2c(-c3ccc(F)cc3)ncn2C2CCNCC2)n1                 %            8.65

[Q] Specify the recorded inhibition for O=C(Nc1ccc(Oc2ccc3[nH]c(NC(=O)c4ccccc4)nc3c2)cc1)Nc1cc(C(F)(F)F)ccc1F , system: Casein kinase I isoform gamma-3 (Homo sapiens).
[A] 2.93

[Q] Please respond with reported inhibition (system Casein kinase I isoform gamma-3 (Homo sapiens)) for C[C@@H](Oc1cc(-n2cnc3ccc(OCC4CCN(C)CC4)cc32)sc1C(N)=O)c1ccccc1Cl .
[A] 5.6

[Q] State, for Casein kinase I isoform gamma-3 (Homo sapiens), measured inhibition of the compound listed here: COc1cccc(/C=N/Nc2ncnc3c2cnn3-c2cccc(OC)c2)c1
[A] 1.09

[Q] Given Clc1ccc(CNc2nccc(-c3cnn4ncccc34)n2)cc1 , report its inhibition on Casein kinase I isoform gamma-3 (Homo sapiens).
[A] 12.9

[Q] Look up Casein kinase I isoform gamma-3 (Homo sapiens) data: inhibition of CS(=O)(=O)CCNCc1ccc(-c2ccc3ncnc(Nc4ccc(OCc5ccccc5)c(Br)c4)c3c2)o1 , then report it.
[A] -2.02

[Q] Check Casein kinase I isoform gamma-3 (Homo sapiens) data and give inhibition for Fc1ccc(-c2nc3n(c2-c2ccncc2)CCS3)cc1 .
[A] 8.82

[Q] Using Casein kinase I isoform gamma-3 (Homo sapiens) as the test system, report measured inhibition of C[C@@H](Oc1cc(-n2cnc3ccc(OC4CCN(C)CC4)cc32)sc1C(N)=O)c1ccccc1Cl .
[A] -4.38

[Q] With Casein kinase I isoform gamma-3 (Homo sapiens) as the test system, provide measured inhibition for this compound: O=C(Nc1n[nH]c2nc(-c3ccc(O)cc3)c(Br)cc12)C1CC1
[A] 4.72

[Q] Fill in: inhibition on Casein kinase I isoform gamma-3 (Homo sapiens), entry CNC(=O)c1cncc(/C=C/c2c(C)cccc2C)c1
[A] -0.55

[Q] For Casein kinase I isoform gamma-3 (Homo sapiens), give inhibition of the listed compound: NC(=O)c1cc(-c2ccc(F)cc2)cc(-c2ccncc2)c1N
[A] 2.66

[Q] GET inhibition where system = Casein kinase I isoform gamma-3 (Homo sapiens) and item = NCc1ccc(-n2c(-c3nonc3N)nc3cnccc32)cc1
[A] 10.7

[Q] # lookup: Casein kinase I isoform gamma-3 (Homo sapiens) inhibition, key = COc1cc2ncn(-c3cc(OCc4ccccc4C(F)(F)F)c(C(C)=O)s3)c2cc1OC
[A] 2.97

[Q] System Casein kinase I isoform gamma-3 (Homo sapiens). Read-out inhibition. Item NS(=O)(=O)c1ccc(Nc2cc(-c3ccc(O)c(F)c3)n[nH]2)cc1 . Report value.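 Note: mean inhibition of CK1-g3, GSK PKIS screen.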
[A] 4.18
